Hi! I'm sharing some pEC50 results obtained with UniProt:Q14832.
Sequence (Q14832 whole entry): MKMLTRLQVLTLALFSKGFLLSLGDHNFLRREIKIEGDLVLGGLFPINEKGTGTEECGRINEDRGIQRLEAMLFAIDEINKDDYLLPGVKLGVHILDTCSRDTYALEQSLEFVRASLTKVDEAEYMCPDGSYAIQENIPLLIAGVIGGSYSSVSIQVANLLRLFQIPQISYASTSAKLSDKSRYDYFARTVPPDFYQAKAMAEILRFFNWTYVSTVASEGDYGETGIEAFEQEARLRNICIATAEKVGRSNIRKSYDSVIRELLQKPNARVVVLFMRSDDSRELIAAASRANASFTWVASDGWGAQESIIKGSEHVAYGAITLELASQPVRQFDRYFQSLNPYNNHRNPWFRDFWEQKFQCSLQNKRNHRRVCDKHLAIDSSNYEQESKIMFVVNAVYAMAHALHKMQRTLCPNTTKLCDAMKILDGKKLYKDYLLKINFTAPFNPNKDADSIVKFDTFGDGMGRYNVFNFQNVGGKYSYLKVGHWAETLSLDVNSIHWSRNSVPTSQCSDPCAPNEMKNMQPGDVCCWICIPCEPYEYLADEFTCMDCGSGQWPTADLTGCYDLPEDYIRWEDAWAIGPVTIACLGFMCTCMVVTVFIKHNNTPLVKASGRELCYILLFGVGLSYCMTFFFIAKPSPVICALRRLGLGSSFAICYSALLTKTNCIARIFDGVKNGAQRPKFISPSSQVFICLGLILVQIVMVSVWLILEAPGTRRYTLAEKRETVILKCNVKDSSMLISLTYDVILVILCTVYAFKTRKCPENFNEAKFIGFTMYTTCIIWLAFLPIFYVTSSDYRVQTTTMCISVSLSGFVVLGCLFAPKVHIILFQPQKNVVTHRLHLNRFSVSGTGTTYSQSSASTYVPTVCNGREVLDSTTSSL
pEC50: −log10 of the molar value.
MEASUREMENT KIND: pEC50

1) N[C@@]1(C(=O)O)C[C@H](NC(=O)c2ccccc2Cl)[C@H]2[C@H](C(=O)O)[C@H]21    8.30
2) N[C@@]1(C(=O)O)C[C@H](NC(=O)c2ccccc2F)[C@H]2[C@H](C(=O)O)[C@H]21    8.29
3) N[C@@]1(C(=O)O)C[C@H](NC(=O)c2cccc(F)c2)[C@H]2[C@H](C(=O)O)[C@H]21    8.70
4) N[C@@]1(C(=O)O)C[C@H](NC(=O)c2ccccc2)[C@H]2[C@H](C(=O)O)[C@H]21    8.30
